Tested on: KM12
procedure_details: NCI tumour cell line growth inhibition, 48 h
Calls of active or inactive are those of the source. No stated cut-off is given here; in the data, active = GI50 up to about 1.1 µM and inactive = higher.
Recorded GI50 by entry

{"molecule": "Clc1ccc(-c2nnc(-c3nn(-c4ccccc4)c4nc5ccccc5nc34)o2)cc1", "GI50": "> 100 µM (inactive)"}
{"molecule": "Nc1ccc2c(SCCSc3c4ccccc4nc4cc(N)ccc34)c3ccccc3nc2c1", "GI50": "> 100 µM (inactive)"}
{"molecule": "OC1=C2c3ccccc3NC2Oc2cc(F)ccc21 (configuration not stated)", "GI50": "15.4 µM (inactive)"}
{"molecule": "Cn1c(=O)c2c3ccccc3c(C(=O)c3ccccc3)n2c2ccccc21", "GI50": "2.44 µM (inactive)"}
{"molecule": "COC(=O)c1cc(=O)nc2sc3cccc(C)c3n12", "GI50": "> 100 µM (inactive)"}
{"molecule": "COCCOCOc1ccc(OCc2ccccc2)cc1", "GI50": "> 100 µM (inactive)"}
{"molecule": "CN1CCN(CCn2c3c4ccccc4ccc3c3oc(=O)c4ccccc4c32)CC1", "GI50": "2.42 µM (inactive)"}
{"molecule": "CN1C(=O)C(CC=O)(C(C)(C)C)c2ccccc21 (configuration not stated)", "GI50": "> 100 µM (inactive)"}
{"molecule": "CCOC(=O)C1CCC(=O)N1C(=O)c1ccc(Cl)cc1 (configuration not stated)", "GI50": "> 100 µM (inactive)"}
{"molecule": "O=C(O)C(Oc1nc(S)nc(S)n1)(c1ccc(Cl)cc1)c1ccc(Cl)cc1", "GI50": "> 100 µM (inactive)"}
{"molecule": "Cc1c2c(c(C)n1-c1ccccc1)C(=O)N(CCN1CCN(c3cccc(C(F)(F)F)c3)CC1)C2=O", "GI50": "30.5 µM (inactive)"}
{"molecule": "CO/N=C(/C(=O)Nc1c[n+](CC(=O)[O-])cs1)c1csc(N)n1", "GI50": "> 100 µM (inactive)"}
{"molecule": "Cc1cc(Br)ccc1/N=N/C1C(=O)ON=C1c1ccccc1 (configuration not stated)", "GI50": "> 100 µM (inactive)"}
{"molecule": "C[C@@H]1CCC[C@]2(C)O[C@H]2CC[C@@](C)(O)[C@@H]2CC3=C(CO)C(=O)O[C@H]3[C@H]1O2", "GI50": "> 50 µM (inactive)"}
{"molecule": "O=[N+]([O-])C1CC/C(=N/O)c2nonc21 (configuration not stated)", "GI50": "> 10 µM (inactive)"}
{"molecule": "CCOC(=O)C(C(=O)OCC)C1C=CCC2c3ccccc3COCC21 (configuration not stated)", "GI50": "33.6 µM (inactive)"}
{"molecule": "CCN(CC)C(=O)N1CCN(C=S)CC1", "GI50": "> 100 µM (inactive)"}
{"molecule": "Nc1nc(N)c(C2=CCN(Cc3ccccc3)CC2)c(=O)[nH]1", "GI50": "> 100 µM (inactive)"}
{"molecule": "O=C(c1ccccc1F)c1c(NCc2ccccc2)c(=O)c1=O", "GI50": "> 100 µM (inactive)"}
{"molecule": "COc1cc2c(c(OC3OC(CO)C(O)C(O)C3O)c1)C(=O)CC(c1ccc(O)cc1)O2 (configuration not stated)", "GI50": "> 100 µM (inactive)"}
{"molecule": "O=C(Nc1nnc(-c2ccccc2)o1)C(SC(=S)N1CCCC1)c1ccccc1 (configuration not stated)", "GI50": "32.8 µM (inactive)"}
{"molecule": "CN(C)c1ccc(/C=C/C=C(/C#N)c2ccccc2)cc1", "GI50": "4.8 µM (inactive)"}
